test: Ionization constant, pKa of substituent at 5th position of the compound at 1 mM by potentiometric analysis; assay type: physicochemical
Readout kind: pKa at 1000 µM
Could you respond with only the numeric value?

Given CN(C)Cc1ccc(O)c2ncccc12 , state its recorded pKa at 1000 µM.
8.66

Given CCN(CC)Cc1ccc(O)c2ncccc12 , state its recorded pKa at 1000 µM.
9.32

###

assay: Ionization constant, pKa of quinoline nitrogen group of the compound at 1 mM by potentiometric analysis; assay type: physicochemical
Could you please report measured pKa at 1000 µM for the items listed next?
Could you respond with only the numeric value?

Given OCc1ccc(O)c2ncccc12 , state its recorded pKa at 1000 µM.
4.93

Given N#CCc1ccc(O)c2ncccc12 , state its recorded pKa at 1000 µM.
4.3

Given CCOC(=O)Cc1ccc(O)c2ncccc12 , state its recorded pKa at 1000 µM.
4.72

Given CC(=O)c1ccc(O)c2ncccc12 , state its recorded pKa at 1000 µM.
4.07

Given COc1ccc(O)c2ncccc12 , state its recorded pKa at 1000 µM.
4.84

Given CN(C)Cc1ccc(O)c2ncccc12 , state its recorded pKa at 1000 µM.
4.47

Given Oc1ccc(I)c2cccnc12 , state its recorded pKa at 1000 µM.
4.43

Given CCN(CC)Cc1ccc(O)c2ncccc12 , state its recorded pKa at 1000 µM.
4.48

Given O=Cc1ccc(O)c2ncccc12 , state its recorded pKa at 1000 µM.
4.42

Given Oc1cccc2cccnc12 [OXYQUINOLINE] , state its recorded pKa at 1000 µM.
5.14

Given O=[N+]([O-])c1ccc(O)c2ncccc12 [NITROXOLINE] , state its recorded pKa at 1000 µM.
3.68

Given COC(=O)Cc1ccc(O)c2ncccc12 , state its recorded pKa at 1000 µM.
4.72

Given Cc1ccc(O)c2ncccc12 [TILIQUINOL] , state its recorded pKa at 1000 µM.
5.25

Given Oc1ccc(Cl)c2cccnc12 [CLOXYQUIN] , state its recorded pKa at 1000 µM.
3.8

###

Could you please report measured pKa at 1000 µM for the items listed next?
test: Ionization constant, pKa of 8-hydroxyl group of the compound at 1 mM by potentiometric analysis; type: physicochemical
Could you respond with only the numeric value?

Given Oc1ccc(Cl)c2cccnc12 , state its recorded pKa at 1000 µM.
8.7

Given COC(=O)Cc1ccc(O)c2ncccc12 , state its recorded pKa at 1000 µM.
9.46

Given CC(=O)c1ccc(O)c2ncccc12 , state its recorded pKa at 1000 µM.
7.62

Given Oc1cccc2cccnc12 , state its recorded pKa at 1000 µM.
9.64

Given Oc1ccc(I)c2cccnc12 , state its recorded pKa at 1000 µM.
8.31

Given OCc1ccc(O)c2ncccc12 , state its recorded pKa at 1000 µM.
9.53

Given Cc1ccc(O)c2ncccc12 , state its recorded pKa at 1000 µM.
9.92

Given O=[N+]([O-])c1ccc(O)c2ncccc12 , state its recorded pKa at 1000 µM.
5.97

Given N#CCc1ccc(O)c2ncccc12 , state its recorded pKa at 1000 µM.
9.25

Given O=Cc1ccc(O)c2ncccc12 , state its recorded pKa at 1000 µM.
7.01

Given CCN(CC)Cc1ccc(O)c2ncccc12 , state its recorded pKa at 1000 µM.
9.19

Given CCOC(=O)Cc1ccc(O)c2ncccc12 , state its recorded pKa at 1000 µM.
9.4

Given CN(C)Cc1ccc(O)c2ncccc12 , state its recorded pKa at 1000 µM.
9.46

Given COc1ccc(O)c2ncccc12 , state its recorded pKa at 1000 µM.
9.96
